Values from PubChem BioAssay (NCI)

Entries and their TGI
test system: SK-OV-3 ovarian; test: NCI tumour cell line growth inhibition, 48 h

Consider the worked cases shown below.
[
  {
    "compound": "CN(C)N=Nc1cccc(C(N)=O)c1",
    "TGI": "> 100 µM"
  },
  {
    "compound": "CC(=O)NC1CC(C(C)(C)NC(C)=O)CC=C1C (stereo not drawn)",
    "TGI": "> 100 µM"
  }
]

## Task Please tell me: TGI of Cc1ccc2c(n1)NC(=O)C(Cc1ccccc1)(N=[N+]=[N-])C2=O (stereo not drawn) , system SK-OV-3 ovarian?
## Result > 100 µM

## Task Please tell me: TGI of "CC(C)(C)C1=CC(=C2C=Cc3cc(O)ccc3O2)C=C(C(C)(C)C)C1=O" , system SK-OV-3 ovarian?
## Result 4.09 µM

## Task Please tell me: TGI of "C(=C\c1ccncc1)/c1ccncc1" , system SK-OV-3 ovarian?
## Result > 100 µM

## Task Please tell me: TGI of "CC(=O)O[C@@H]1C2=C(C)C3(CC3)[C@@](C)(O)C(=O)C2=C[C@@]1(C)CO" , system SK-OV-3 ovarian?
## Result 8.01 µM

## Task Please tell me: TGI of "CCOC(=O)N/N=C(\CC)NO" , system SK-OV-3 ovarian?
## Result > 100 µM

## Task Please tell me: TGI of CC(C)OC(=O)C1(C(C)C)CCc2ccc(C(=O)CCC(=O)O)cc21 (stereo not drawn) , system SK-OV-3 ovarian?
## Result > 100 µM

## Task Please tell me: TGI of "CN(CCCN1C(=O)c2cccc3cc([N+](=O)[O-])cc(c23)C1=O)CCN(C)CCCN1C(=O)c2cccc3cc([N+](=O)[O-])cc(c23)C1=O" , system SK-OV-3 ovarian?
## Result > 39.3 µM

## Task Please tell me: TGI of COc1ccc(/C=C2\CCC(C)c3c2nc(N)c(C#N)c3-c2ccc(OC)c(OC)c2)cc1OC (stereo not drawn) , system SK-OV-3 ovarian?
## Result > 100 µM

## Task Please tell me: TGI of COc1ccc(C2Oc3c(cccc3-c3c(-c4ccc(O)cc4)oc4cc(O)cc(O)c4c3=O)C(=O)C2O)cc1O (stereo not drawn) , system SK-OV-3 ovarian?
## Result > 100 µM

## Task Please tell me: TGI of Nc1nc(Cl)c(N)c(NCC2(CO)CCC(CCc3ccccc3)C2)n1 (stereo not drawn) , system SK-OV-3 ovarian?
## Result 63.8 µM

## Task Please tell me: TGI of "CNn1c(-c2ccc(C)cc2)n[nH]c1=O" , system SK-OV-3 ovarian?
## Result > 100 µM

====

Entries and their TGI
test system: KM12 colon; test: NCI tumour cell line growth inhibition, 48 h

Consider the worked cases shown below.
[
  {
    "molecule": "O=CC(O)C(O)C1OC(=O)c2cc(O)c(O)c(O)c2C2=C(O)C(O)=C3OC(=O)c4c(c(O)c(O)c5c4C3C2C(=O)O5)-c2c(cc(O)c(O)c2O)C(=O)OCC1O (stereo unspecified)",
    "experimental_target": "KM12 colon",
    "TGI": "31.2 µM"
  },
  {
    "molecule": "CC(=O)c1ccc2c3c1[C@H]1O[C@H]1c1cccc(c1-3)[C@@H]1O[C@H]21",
    "experimental_target": "KM12 colon",
    "TGI": "5.31 µM"
  }
]

Moving on to the next molecule.
## Task Please tell me: TGI of "COc1ccc2c(C)cc(N/N=C/c3ccc(C)s3)nc2c1" , system KM12 colon?
## Result > 57 µM

====

Entries and their TGI
test system: KM12 colon; assay: NCI tumour cell line growth inhibition, 48 h
The answer is to be given in µM; state only the numeric part.

[
  {
    "molecule": "CC(=O)N1C(CCc2ccccc2)CC(C)(C=O)C1Cc1ccc(O[Si](C(C)C)(C(C)C)C(C)C)cc1 (stereo not given)",
    "experimental_target": "KM12 colon",
    "val": 11.8
  }
]

## Task Query: TGI; subject: "Cc1ccc(C(C)C)c(OCC(=O)N/N=C/c2c[nH]c3ccc(Br)cc23)c1"
## Result 6.3

====

system: MDA-MB-231 breast; assay: NCI tumour cell line growth inhibition, 48 h; in the data active = GI50 below about 0.43 µM; inactive = the rest
Return exactly one item of active, inactive

Recorded results for 5 compounds are shown here.
[
  {
    "compound": "Cc1cc(-c2nc3n(c2/C=N/N=C(N)N)CCS3)c(C)s1",
    "class_name": "inactive"
  },
  {
    "compound": "COc1cc2c(NC3CCN(C(C)C)CC3)nc(C3CCCCC3)nc2cc1OCCCN1CCCC1",
    "class_name": "inactive"
  },
  {
    "compound": "O=C1C(Cl)=C(Nc2cc(Cl)ccc2O)C(=O)N1Cc1ccccc1",
    "class_name": "inactive"
  },
  {
    "compound": "C=C1C(=O)O[C@H]2[C@H]1CC/C(COC(=O)CCCCCCCC(=O)OC/C1=C/CC[C@@]3(C)O[C@H]3[C@H]3OC(=O)C(=C)[C@@H]3CC1)=C\\CC[C@@]1(C)O[C@@H]21",
    "class_name": "inactive"
  },
  {
    "compound": "CNCC(=O)NC(CO)C(=O)NC(CO)C(=O)NC1C(C(N)=O)OC(n2ccc(N)nc2=O)C(O)C1O (stereo not drawn)",
    "class_name": "inactive"
  }
]

## Task Check the results log: what was the call for "CC(C)c1[nH]nc2c(NCc3ccc(-c4ccccn4)cc3)nc(SCCN)nc12" ?
## Result active

## Task Check the results log: what was the call for "O=c1cc(-c2ccccc2)oc2cc(OCCCCCN3CCOCC3)cc(O)c12" ?
## Result inactive

## Task Check the results log: what was the call for "CC(C)(O)CCc1cccc(C(=O)c2cnn(-c3ccc(F)cc3)c2N)c1" ?
## Result inactive

====

test system: SK-MEL-5 melanoma; assay: NCI tumour cell line growth inhibition, 48 h; in the data active = GI50 below about 0.43 µM; inactive = the rest
Return exactly one item of 1 (active), -1 (inactive)

Recorded results for 8 molecules are shown here.
[
  {
    "molecule": "Cc1cc(Cl)nc(N(CCCNc2ccnc3cc(Cl)ccc23)Cc2cccs2)n1",
    "experimental_target": "SK-MEL-5 melanoma",
    "class_name": -1
  },
  {
    "molecule": "COc1cc2c3c(n(CCN4CCOCC4)c(=O)c2cc1OC)-c1ccccc1C3=O",
    "experimental_target": "SK-MEL-5 melanoma",
    "class_name": -1
  },
  {
    "molecule": "CCC[CH2][Sn]([CH2]CCC)([O]C(=O)c1cc(F)ccc1F)[O]C(=O)c1cc(F)ccc1F",
    "experimental_target": "SK-MEL-5 melanoma",
    "class_name": -1
  },
  {
    "molecule": "Cc1cc(-c2nc3n(c2/C=N/N=C(N)N)CCS3)c(C)s1",
    "experimental_target": "SK-MEL-5 melanoma",
    "class_name": -1
  },
  {
    "molecule": "Cc1cc2c3c([n+](C)c4ccc(F)cc4c3c1)-c1cc(F)ccc1N2C",
    "experimental_target": "SK-MEL-5 melanoma",
    "class_name": -1
  },
  {
    "molecule": "C=CCC(N[C@H](CO)c1ccccc1)c1ccccn1 (some centres not stated)",
    "experimental_target": "SK-MEL-5 melanoma",
    "class_name": -1
  },
  {
    "molecule": "CCn1cc(C(=O)N/N=C/c2cccs2)c(=O)c2cc(F)c(N3CCNC(C)C3)c(F)c21 (configuration not stated)",
    "experimental_target": "SK-MEL-5 melanoma",
    "class_name": -1
  },
  {
    "molecule": "CC(=O)O[C@@H]1C2=C(C)C3(CC3)[C@@](C)(O)C(=O)C2=C[C@@]1(C)CO",
    "experimental_target": "SK-MEL-5 melanoma",
    "class_name": -1
  }
]

## Task Check the results log: what was the call for "COc1cccc(N2CCN(c3ncnc4cc[nH]c34)CC2)c1" ?
## Result 1

## Task Check the results log: what was the call for "C[C@H]1COCCN1c1nc(-c2cnc(N)cc2C(F)F)nc(N2CCOCC2)n1" ?
## Result 1

## Task Check the results log: what was the call for "Cn1cc(C2=C(c3cc[nH]c3)C(=O)NC2=O)c2ccccc21" ?
## Result -1

## Task Check the results log: what was the call for CCC[n+]1cc2cc3c(cc2c2c1-c1cc4c(cc1C2)OCO4)OCO3 (tested in a mixture with another compound) ?
## Result 1

====

tested on: A498 renal; test: NCI tumour cell line growth inhibition, 48 h
Entries and their TGI

Consider the worked cases shown below.
[
  {
    "molecule": "O=c1oc2ccccc2c(O)c1C(c1cccc(C(c2c(O)c3ccccc3oc2=O)c2c(O)c3ccccc3oc2=O)c1)c1c(O)c2ccccc2oc1=O",
    "experimental_target": "A498 renal",
    "val": "> 100 µM"
  },
  {
    "molecule": "C[C@H](c1ccccc1)n1c(N)c(-c2nc3ccccc3s2)c2ccc([N+](=O)[O-])cc2c1=O",
    "experimental_target": "A498 renal",
    "val": "75.2 µM"
  },
  {
    "molecule": "Cc1ccc(C2[C@H]3C(=O)N(c4ccc(Cc5ccc(N6C(=O)[C@@H]7ON(c8ccccc8)C(c8ccc(C)cc8)[C@@H]7C6=O)cc5)cc4)C(=O)[C@H]3ON2c2ccccc2)cc1 (stereo partly specified)",
    "experimental_target": "A498 renal",
    "val": "> 100 µM"
  },
  {
    "molecule": "COc1ccc2c(C)cc(N/N=C/c3ccc(C)s3)nc2c1",
    "experimental_target": "A498 renal",
    "val": "52.9 µM"
  },
  {
    "molecule": "Cc1cc(Cl)nc(N(CCCNc2ccnc3cc(Cl)ccc23)Cc2cccs2)n1",
    "experimental_target": "A498 renal",
    "val": "6.99 µM"
  }
]

## Task Query: TGI; subject: O=CC(O)C(O)C1OC(=O)c2cc(O)c(O)c(O)c2C2=C(O)C(O)=C3OC(=O)c4c(c(O)c(O)c5c4C3C2C(=O)O5)-c2c(cc(O)c(O)c2O)C(=O)OCC1O (stereo unspecified)
## Result > 100 µM

## Task Query: TGI; subject: "COc1cc2c3c(n(CCN4CCOCC4)c(=O)c2cc1OC)-c1ccccc1C3=O"
## Result > 100 µM

## Task Query: TGI; subject: CCCCCCCCC(C)CCCCCCCCC(=O)OCC(COP(=O)([O-])OCC[N+](C)(C)C)OC(=O)CCCCCCCCC(C)CCCCCCCC (stereo unspecified)
## Result > 100 µM

## Task Query: TGI; subject: "COC(=O)[C@@H](NC(=O)[C@H](N)Cc1ccc(N(CCCl)CCCl)cc1)C(C)C"
## Result 48.5 µM

## Task Query: TGI; subject: "c1ccc2c(c1)SCCc1cn[nH]c1-2"
## Result > 100 µM

## Task Query: TGI; subject: O=[N+]([O-])c1ccc(C2SCc3nc4ccccc4n32)cc1 (stereo unspecified)
## Result > 100 µM

## Task Query: TGI; subject: O=C1NC2(CCCCC2)C2CCCCC=C12 (stereo unspecified)
## Result > 100 µM

## Task Query: TGI; subject: "C[C@@H](NC(=O)Cn1c(Cl)nc2ccccc21)c1ccccc1"
## Result > 100 µM

## Task Query: TGI; subject: COC1(OC)N=C(N)C2(C#N)C(C)=C3NCN(C)N=C3C12C#N (stereo unspecified)
## Result > 100 µM

## Task Query: TGI; subject: "[Cl][Hg][c]1ccc2ccccc2c1"
## Result 12.4 µM

## Task Query: TGI; subject: "Cc1c(NC(=O)Nc2c(Cl)cccc2Cl)c(=O)n(-c2ccccc2)n1C"
## Result > 100 µM

## Task Query: TGI; subject: "COc1ccc(CCc2ccc3c(c2)OCO3)cc1"
## Result > 100 µM

## Task Query: TGI; subject: "CO/C=C1\OC(=O)C=C1OC"
## Result > 100 µM

## Task Query: TGI; subject: "COC(=O)c1ccc(NC(=O)c2ccc(NC3=C(Cl)C(=O)N(Cc4ccccc4)C3=O)cc2)cc1"
## Result 58.6 µM

## Task Query: TGI; subject: CSC1(C(=O)O)C2CCC3C2CCC31 (stereo unspecified)
## Result > 100 µM
